# Test system: Colo205 cells
# MEASUREMENT_DESCRIPTION: Cell-based proliferation assay for determination of GI50 values (CyQUANT)
# Set-up: species or system human
# APPLIED_CONDITIONS: Homo sapiens, COLO 205, 96 h, 96 h treatment
ASSAY_ENDPOINT: GI50

1. CCN(CCC(C)(C)C)Cc1c(C(C)(C)C)nc2cc(/C=C/C(=O)NO)ccn12 [Compound 92]    0.48 µM
2. CCCN(CC)Cc1c(C)nc2cc(/C=C/C(=O)NO)ccn12 [Compound 100]    4.6 µM
3. CCCCCc1nc2cc(/C=C/C(=O)NO)ccn2c1CN(CC)CCCC [Compound 129]    0.15 µM
4. CCCCN(CC)Cc1c(CC(C)C)nc2cc(/C=C/C(=O)NO)ccn12 [Compound 134]    0.15 µM
5. CCCCc1nc2cc(/C=C/C(=O)NO)ccn2c1CNC(C)(C)C [Compound 73]    0.14 µM
6. CCCCCc1nc2cc(/C=C/C(=O)NO)ccn2c1CN(CC)CCC(C)C [Compound 130]    0.14 µM

----------
Reported IC50 is given for each of the following compounds.
# SYSTEM_NAME: HDAC1 enzyme (recombinant GST-HDAC1) (Homo sapiens (Human))
# MEASUREMENT_DESCRIPTION: In vitro HDAC assay for determination of IC50 values (BIOMOL fluorescent-based HDAC activity assay)
# APPLIED_CONDITIONS: Flur de lys substrate, 2 h room temperature, read-out: IC50 (HDAC 1)
ASSAY_ENDPOINT: IC50 (nM)

1. O=C(C=Cc1ccc2nc(CCc3ccccc3)c(NCc3ccc4c(c3)OCO4)n2c1)NO    720
2. CCCCCc1nc2cc(/C=C/C(=O)NO)ccn2c1CN(CC)CCC(C)C    30
3. CCN(Cc1c(C)nc2cc(C=CC(=O)NO)ccn12)CC(C)(C)C    50
4. CCCCN(CC)Cc1c(CCC)nc2cc(/C=C/C(=O)NO)ccn12    40
5. CCC(CC)CN(C)Cc1c(C(C)(C)C)nc2cc(/C=C/C(=O)NO)ccn12    410

----------
# SYSTEM_NAME: HDAC1 enzyme (recombinant GST-HDAC1) (Homo sapiens (Human), UniProt Q13547)
# Sequence (Q13547 whole entry): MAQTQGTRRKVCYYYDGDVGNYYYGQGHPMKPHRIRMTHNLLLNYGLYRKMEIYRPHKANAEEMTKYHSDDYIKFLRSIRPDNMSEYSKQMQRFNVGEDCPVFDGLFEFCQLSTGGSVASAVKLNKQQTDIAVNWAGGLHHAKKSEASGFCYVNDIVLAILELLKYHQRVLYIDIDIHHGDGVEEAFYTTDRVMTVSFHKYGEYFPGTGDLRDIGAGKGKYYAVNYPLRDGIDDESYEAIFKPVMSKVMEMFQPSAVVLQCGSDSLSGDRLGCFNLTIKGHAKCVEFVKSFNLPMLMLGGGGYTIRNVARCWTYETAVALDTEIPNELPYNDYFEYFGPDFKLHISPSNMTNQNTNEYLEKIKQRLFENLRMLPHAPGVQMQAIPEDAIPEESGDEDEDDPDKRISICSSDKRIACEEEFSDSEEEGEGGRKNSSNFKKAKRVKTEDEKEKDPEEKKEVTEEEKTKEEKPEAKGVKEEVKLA
# MEASUREMENT_DESCRIPTION: In vitro HDAC assay for determination of IC50 values (BIOMOL fluorescent-based HDAC activity assay)
# APPLIED_CONDITIONS: Flur de lys substrate, 2 h room temperature, read-out: IC50 (HDAC 1)
Reported log10 of IC50 is given for each of the following compounds.
ASSAY_ENDPOINT: log10 of IC50 (log10 of the value in nM)

1) COc1cc(Nc2c(CCc3ccccc3)nc3ccc(/C=C/C(=O)NO)cn23)cc(OC)c1OC    2.18
2) CCN(CC)Cc1c(C(C)(C)C)nc2cc(/C=C/C(=O)NO)ccn12    3.08
3) CCCCc1nc2cc(/C=C/C(=O)NO)ccn2c1CN(CC)CC    2.26
4) CCCN(C)Cc1c(-c2ccccc2)nc2cc(C=CC(=O)NO)ccn12    2.38
5) CCCN(C)Cc1c(C(C)(C)C)nc2cc(/C=C/C(=O)NO)ccn12    2.72
6) CCCCc1nc2cc(/C=C/C(=O)NO)ccn2c1CN(CC)CC(CC)CC    2.18
7) CCN(Cc1c(C(C)(C)C)nc2cc(/C=C/C(=O)NO)ccn12)CC1CCCCC1    2.28
8) O=C(C=Cc1ccn2c(CN3CCC(Cc4ccccc4)CC3)c(-c3ccccc3)nc2c1)NO    3.18
9) CCCCc1nc2cc(/C=C/C(=O)NO)ccn2c1CN(CCC)CCCC    1.95
10) CCCCCCc1nc2cc(/C=C/C(=O)NO)ccn2c1NCCC(=O)N(CCOC)C(C)C    2.56
11) CCCCCCc1nc2cc(/C=C/C(=O)NO)ccn2c1NCCC(=O)N(CCC)CCO    2.92
12) CCN(Cc1c(C(C)(C)C)nc2cc(/C=C/C(=O)NO)ccn12)CC1CC1    2.52
13) CC(C)(C)CNCc1c(-c2ccccc2)nc2cc(/C=C/C(=O)NO)ccn12    2.36
14) CCCCN(CC)Cc1c(C)nc2cc(/C=C/C(=O)NO)ccn12    1.48
15) CCCCCCc1nc2cc(/C=C/C(=O)NO)ccn2c1NCCC(=O)NCCN(CC)CC    2.04
16) CCCCc1nc2cc(/C=C/C(=O)NO)ccn2c1CN(CC)CCC(C)CC(C)(C)C (stereo not drawn)    2.30
